// provenance: ChEMBL document CHEMBL3352511

assayProtocol: Half life in Balb nu/nu mouse at 10 mg/kg, iv
Format: ADME, organism-based
Design: dose 10 mg/kg, route intravenous
conditionDetails: in vivo
recordedMetric: half-life (h)
// return numeric value only (unit: h, not printed)

1) NC(=O)c1cc(-c2ccnc(N)n2)[nH]c1-c1cc(C(F)(F)F)ccc1Cl
1.1
2) CCc1ccc(C(F)(F)F)cc1-c1[nH]c(-c2ccnc(N)n2)cc1C(N)=O
1

Entry CCc1ccc(Cl)cc1-c1[nH]c(-c2ccnc(N)n2)cc1C(N)=O ; half-life = 0.2

---

Parameter: Cmax. Scope: all listed entries.
assayProtocol: Cmax in Balb nu/nu mouse at 10 mg/kg, po
Assay type: ADME, organism-based
Design: dose 10 mg/kg, route oral
conditionDetails: in vivo
The answer should read as a number with its unit following.

Consider the reported Cmax for these molecules:
1. CCc1ccc(Cl)cc1-c1[nH]c(-c2ccnc(N)n2)cc1C(N)=O
0.6 µM
2. NC(=O)c1cc(-c2ccnc(N)n2)[nH]c1-c1cc(C(F)(F)F)ccc1Cl
4.2 µM

Entry CCc1ccc(C(F)(F)F)cc1-c1[nH]c(-c2ccnc(N)n2)cc1C(N)=O ; Cmax = 4.4 µM

---

assayProtocol: AUC(infinity) in Balb nu/nu mouse at 10 mg/kg, po
Assay type: ADME, organism-based
Parameters: time infinity, dose 10 mg/kg, route oral
conditionDetails: plasma
Parameter: AUC(0-inf). Scope: all listed entries.
// return numeric value only (unit: µM·h, not printed)

Consider the reported AUC(0-inf) for these compounds:
1) NC(=O)c1cc(-c2ccnc(N)n2)[nH]c1-c1cc(C(F)(F)F)ccc1Cl
9.5
2) CCc1ccc(C(F)(F)F)cc1-c1[nH]c(-c2ccnc(N)n2)cc1C(N)=O
4.6

Then there is this compound:
Entry CCc1ccc(Cl)cc1-c1[nH]c(-c2ccnc(N)n2)cc1C(N)=O ; AUC(0-inf) = 0.7

---

assayProtocol: Half life in Balb nu/nu mouse at 10 mg/kg, po
Assay type: ADME, organism-based
Parameters: dose 10 mg/kg, route oral
conditionDetails: in vivo
recordedMetric: half-life (min)
// return numeric value only (unit: min, not printed)

1) NC(=O)c1cc(-c2ccnc(N)n2)[nH]c1-c1cc(C(F)(F)F)ccc1Cl
138
2) CCc1ccc(C(F)(F)F)cc1-c1[nH]c(-c2ccnc(N)n2)cc1C(N)=O
108

Then there is this compound:
Entry CCc1ccc(Cl)cc1-c1[nH]c(-c2ccnc(N)n2)cc1C(N)=O ; half-life = 48

---

Quick note: these are IC50 numbers for system: Tyrosine-protein kinase JAK2 (Homo sapiens, UniProt O60674, V617F)
Sequence (O60674 whole entry V617F): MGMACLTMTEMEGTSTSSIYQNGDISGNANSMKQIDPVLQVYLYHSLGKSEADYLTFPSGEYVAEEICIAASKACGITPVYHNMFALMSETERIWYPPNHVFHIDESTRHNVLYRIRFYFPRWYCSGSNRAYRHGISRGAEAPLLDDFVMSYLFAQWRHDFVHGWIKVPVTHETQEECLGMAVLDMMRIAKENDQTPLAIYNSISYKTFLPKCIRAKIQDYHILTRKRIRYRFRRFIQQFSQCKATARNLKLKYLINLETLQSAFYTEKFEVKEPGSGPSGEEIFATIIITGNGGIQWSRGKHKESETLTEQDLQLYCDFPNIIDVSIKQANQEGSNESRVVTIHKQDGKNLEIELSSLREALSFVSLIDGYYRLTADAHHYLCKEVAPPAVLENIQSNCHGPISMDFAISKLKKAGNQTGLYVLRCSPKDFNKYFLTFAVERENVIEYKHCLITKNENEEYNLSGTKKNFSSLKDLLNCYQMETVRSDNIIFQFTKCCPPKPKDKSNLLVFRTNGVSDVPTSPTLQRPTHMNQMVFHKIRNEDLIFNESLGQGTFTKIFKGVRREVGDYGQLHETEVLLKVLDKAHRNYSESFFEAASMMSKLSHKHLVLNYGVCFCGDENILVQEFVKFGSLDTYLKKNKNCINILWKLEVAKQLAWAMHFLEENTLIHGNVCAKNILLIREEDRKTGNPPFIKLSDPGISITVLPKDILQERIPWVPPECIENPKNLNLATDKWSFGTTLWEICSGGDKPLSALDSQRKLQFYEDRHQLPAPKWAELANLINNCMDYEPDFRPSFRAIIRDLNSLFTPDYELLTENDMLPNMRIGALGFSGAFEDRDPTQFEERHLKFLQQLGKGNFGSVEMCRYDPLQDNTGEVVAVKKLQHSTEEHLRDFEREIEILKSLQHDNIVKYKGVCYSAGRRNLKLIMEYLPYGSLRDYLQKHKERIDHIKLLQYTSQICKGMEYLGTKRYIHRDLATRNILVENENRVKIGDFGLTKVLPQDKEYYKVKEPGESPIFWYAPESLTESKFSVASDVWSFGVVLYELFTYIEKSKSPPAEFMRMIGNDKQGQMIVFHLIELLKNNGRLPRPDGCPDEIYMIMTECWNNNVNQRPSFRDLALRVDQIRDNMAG
// return numeric value only (unit: nM, not printed)

Consider the reported IC50 for these molecules:
1. Cc1ccc(Cl)cc1-c1c(C(N)=O)cc(-c2ccnc(Nc3ccc(N4CCN(C)CC4)cc3)n2)n1C
250
2. NC(=O)c1cc(-c2ccnc(N)n2)[nH]c1-c1cc(C(F)(F)F)ccc1Cl
480
3. CNC(=O)c1cc(-c2ccnc(N)n2)[nH]c1-c1cc(Cl)ccc1C
480
4. NC(=O)c1cc(-c2ccnc(N)n2)[nH]c1-c1cc(OC(F)(F)F)ccc1Cl
1100
5. CCc1ccc(C(F)(F)F)cc1-c1[nH]c(-c2ccnc(N)n2)cc1C(N)=O
320

# lookup: Cc1ccc(C(F)(F)F)cc1-c1[nH]c(-c2ccnc(N)n2)cc1C(N)=O on Tyrosine-protein kinase JAK2 (Homo sapiens, UniProt O60674, V617F), IC50 = 760

# lookup: NC(=O)c1cc(-c2ccnc(N)n2)[nH]c1-c1cc(C(F)(F)F)ccc1C(F)(F)F on Tyrosine-protein kinase JAK2 (Homo sapiens, UniProt O60674, V617F), IC50 = 3070

# lookup: NC(=O)c1cc(-c2ccnc(N)n2)[nH]c1-c1cc(Cl)ccc1Cl on Tyrosine-protein kinase JAK2 (Homo sapiens, UniProt O60674, V617F), IC50 = 700
